- assay: self-splicing fitness, log relative to wild type (ln ratio); higher = more splicing; Tetrahymena group I intron in knt gene, E. coli kanamycin selection, DiMSum; sequences stand for … in CUCUCU…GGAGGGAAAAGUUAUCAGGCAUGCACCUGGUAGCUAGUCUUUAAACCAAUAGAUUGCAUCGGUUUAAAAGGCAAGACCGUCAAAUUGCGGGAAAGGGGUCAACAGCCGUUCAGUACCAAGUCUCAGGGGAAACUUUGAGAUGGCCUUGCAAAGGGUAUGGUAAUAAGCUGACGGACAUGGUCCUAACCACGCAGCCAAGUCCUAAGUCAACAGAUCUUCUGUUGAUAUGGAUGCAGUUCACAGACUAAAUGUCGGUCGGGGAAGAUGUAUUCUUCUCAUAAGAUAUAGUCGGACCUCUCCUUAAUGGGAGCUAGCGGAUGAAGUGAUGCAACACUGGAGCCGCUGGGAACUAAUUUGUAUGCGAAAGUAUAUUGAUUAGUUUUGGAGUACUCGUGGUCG;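 note: selection with 25 µg/mL kanamycin versus none on LB agar overnight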
- experimental-context: 30 °C
assay-readout: self-splicing fitness (ln)
// response body must contain only the number

So for "UUCGAGCAAUAUUACGAGUC" , the logged self-splicing fitness (ln) turned out to be -2.82

So for "AUCUAGCAAUAUUACGCAAC" , the logged self-splicing fitness (ln) turned out to be -3.38

So for "GGUUAGCAAUAUUACGAAUG" , the logged self-splicing fitness (ln) turned out to be -0.2

So for "ACUCAGCAAUAUUACGCUAG" , the logged self-splicing fitness (ln) turned out to be -1.74
